- target or test system: peripheral type CCK receptors in rat pancreas (Rattus norvegicus, UniProt P30551)
- Construct: Pancreas was obtained from male Sprague-Dawley rats; from tissue; host or cells: pancreas membranes of male Sprague-Dawley rats
- assay comment: Binding to peripheral type CCK receptors in rat pancreas (3H-L-364,718)
- recorded conditions: at 10 μM; read-out: Pancreas Percent Inhibition
- Procedure: Binding to peripheral type CCK receptors in rat pancreas was done according to the method of Chang et al. (Mol. Pharmacol. 30: 212-217, 1986) using ^3 H-L364, 718. […] Scintillation cocktail was added to the filters which were counted for radioactivity using a Micromedic Taurus automatic liquid scintillation counter. Compound samples were prepared and IC-50 values were determined as described for the CCK-brain experiments. […]
Class definitions on inhibition at 10 µM: class 0: < 30%; class 1: ≥ 30% and < 60%; class 2: ≥ 60%

Please review the following examples before continuing.
>>> label_class("O=C1NN(C(=O)Nc2ccc(Cl)c([N+](=O)[O-])c2)[C@H](c2ccccc2)[C@H]1c1ccccc1 (relative stereo)")
"class 2"
>>> label_class("CCOc1ccc(NC(=O)N2NC(=O)[C@@H](c3ccccc3)[C@@H]2c2ccccc2)cc1 (relative stereo)")
"class 0"
>>> label_class("CCOC(=O)c1ccc(NC(=O)N2NC(=O)[C@@H](c3ccccc3)[C@@H]2c2ccccc2)cc1 (relative stereo)")
"class 0"
>>> label_class("CC(C)c1ccc(NC(=O)N2NC(=O)[C@@H](c3ccccc3)[C@@H]2c2ccccc2)cc1 (relative stereo)")
"class 1"
>>> label_class("O=C1NN(C(=O)NCc2cccc(Cl)c2)[C@@H](c2ccccc2)[C@@H]1c1ccccc1 (relative stereo)")
"class 2"

Request: Which class is correct for the following molecule? O=C1NN(C(=O)Nc2ccc(F)c(Cl)c2)[C@H](c2ccccc2)[C@H]1c1ccccc1 (relative stereo)
Result: class 1

Request: Same for O=C1NN(C(=O)Nc2ccc(Br)cc2)C(c2ccccc2)C1c1ccc(Cl)cc1 (stereo not drawn)
Result: class 2

Request: Same for O=C1NN(c2nc3c(Cl)c(Cl)ccc3s2)[C@@H](c2ccccc2)[C@@H]1c1ccccc1 (relative stereo)
Result: class 1

Request: Same for O=C1NN(C(=O)Nc2ccc(Br)cc2)C(c2ccccc2)C1c1cccc(Br)c1 (stereo not drawn)
Result: class 2

Request: Same for COc1cccc(C2C(=O)NN(C(=O)Nc3ccc(Br)cc3)C2c2ccccc2)c1 (stereo not drawn)
Result: class 0

Request: Same for NC(=O)c1cccc(C2C(c3ccccc3)C(=O)NN2C(=O)Nc2ccc(Br)cc2)c1 (stereo not drawn)
Result: class 1

###

- target or test system: gastrin receptor (Cavia porcellus, UniProt H0VZC5)
- Construct: Guinea pig stomach fundus was obtained from male Hartley guinea pigs; from tissue; host or cells: stomach fundus mucosal membranes of male Hartley guinea pigs
- Sequence (H0VZC5 1-426): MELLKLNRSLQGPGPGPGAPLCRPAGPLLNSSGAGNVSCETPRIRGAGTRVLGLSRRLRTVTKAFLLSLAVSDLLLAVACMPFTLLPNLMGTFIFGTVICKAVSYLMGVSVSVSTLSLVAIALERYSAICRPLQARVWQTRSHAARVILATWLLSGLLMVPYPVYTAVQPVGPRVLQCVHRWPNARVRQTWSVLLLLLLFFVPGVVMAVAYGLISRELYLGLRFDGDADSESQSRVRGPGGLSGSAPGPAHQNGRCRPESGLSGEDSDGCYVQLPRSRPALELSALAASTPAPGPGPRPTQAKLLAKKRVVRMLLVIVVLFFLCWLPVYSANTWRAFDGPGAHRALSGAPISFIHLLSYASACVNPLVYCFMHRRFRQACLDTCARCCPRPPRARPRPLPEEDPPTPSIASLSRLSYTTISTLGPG
- assay comment: Gastrin binding to guinea pig stomach mucosal membranes (125I-gastrin I)
- recorded conditions: guinea pig stomach mucosal membranes; read-out: Gastrin IC50
parameter: pIC50
Here pIC50 is given on a logarithmic scale as minus log10 of the concentration in mol/L.

>>> value_reported("O=C1NN(C(=O)Nc2ccc(Br)cc2)C(c2ccccc2)C1c1cccc([N+](=O)[O-])c1 (stereo not drawn)")
6.23
>>> value_reported("O=C1NN(C(=O)Nc2ccc(Br)cc2)[C@@H](c2cccc(Cl)c2Cl)[C@H]1c1ccccc1 (relative stereo)")
6.00
>>> value_reported("CC(C)(C)c1ccc(NC(=O)N2NC(=O)[C@@H](c3ccccc3)[C@@H]2c2ccccc2)cc1 (relative stereo)")
6.46

// switching to the query molecule
Request: # get_value(readout='pIC50', item= O=C1NN(C(=O)Nc2ccc(C(F)(F)F)cc2)[C@@H](c2ccccc2)[C@@H]1c1ccccc1 (relative stereo) )
Result: 6.38

###

- target or test system: peripheral type CCK receptors in rat pancreas (Rattus norvegicus, UniProt P30551)
- Construct: Pancreas was obtained from male Sprague-Dawley rats; from tissue; host or cells: pancreas membranes of male Sprague-Dawley rats
- assay comment: Binding to peripheral type CCK receptors in rat pancreas (3H-L-364,718)
- recorded conditions: at 10 μM; read-out: Pancreas Percent Inhibition
Class definitions on inhibition at 10 µM: bottom bin = under 30%, middle bin = from 30% up to 60%, top bin = 60% and over

Please review the following examples before continuing.
>>> label_class("O=C1NN(C(=O)Nc2ccc(Br)cc2)[C@@H](c2ccccc2Cl)[C@H]1c1ccccc1Cl (relative stereo) [Example 133A]")
"middle bin"
>>> label_class("O=C1NN(C(=O)c2cccc(C(F)(F)F)c2)[C@@H](c2ccccc2)[C@@H]1c1ccccc1 (relative stereo)")
"bottom bin"
>>> label_class("COc1ccccc1C1C(c2ccccc2)C(=O)NN1C(=O)Nc1ccc(Br)cc1 (stereo not shown)")
"middle bin"
>>> label_class("CC(C)c1ccc(NC(=O)N2NC(=O)C(c3ccccc3)C2c2ccccc2Cl)cc1 (stereo not shown)")
"bottom bin"
>>> label_class("O=C(O)CN1C(=O)[C@@H](c2ccccc2)[C@H](c2ccccc2)N1C(=O)Nc1ccc(Br)cc1 (relative stereo)")
"middle bin"
>>> label_class("O=C1NN(C(=O)Nc2ccc(OCCc3ccccc3)cc2)[C@@H](c2ccccc2)[C@@H]1c1ccccc1 (relative stereo)")
"middle bin"
>>> label_class("O=C1NN(C(=O)Nc2cc(C(F)(F)F)cc(C(F)(F)F)c2)[C@H](c2ccccc2)[C@H]1c1ccccc1 (relative stereo)")
"top bin"
>>> label_class("O=C1NN(C(=O)NC2CCc3ccccc3C2)[C@@H](c2ccccc2)[C@@H]1c1ccccc1 (relative stereo)")
"top bin"
>>> label_class("O=C1NN(C(=O)Nc2ccc(Cl)cc2)[C@@H](c2ccccc2)[C@@H]1c1ccccc1 (relative stereo)")
"bottom bin"
>>> label_class("C[C@@H](NC(=O)N1NC(=O)C(c2ccccc2)C1c1ccccc1)c1cccc2ccccc12 (stereo partly shown)")
"middle bin"

Request: Which class is correct for the following molecule? O=C1NN(C(=O)NCc2ccc(Cl)c(Cl)c2)[C@@H](c2ccccc2)[C@@H]1c1ccccc1 (relative stereo)
Result: top bin

Request: Same for O=C1NN(C(=O)Nc2ccc3c(c2)OCO3)[C@H](c2ccccc2)[C@H]1c1ccccc1 (relative stereo)
Result: bottom bin

Request: Same for CN(C(=O)N1NC(=O)[C@@H](c2ccccc2)[C@@H]1c1ccccc1)c1ccc(Cl)cc1 (relative stereo)
Result: middle bin

###

# pIC50 values compiled below
- target or test system: brain CCK receptor (Mus musculus, UniProt P56481)
- Construct: from tissue; host or cells: forebrain membranes of male CF-1 mice
- Sequence (P56481 whole entry): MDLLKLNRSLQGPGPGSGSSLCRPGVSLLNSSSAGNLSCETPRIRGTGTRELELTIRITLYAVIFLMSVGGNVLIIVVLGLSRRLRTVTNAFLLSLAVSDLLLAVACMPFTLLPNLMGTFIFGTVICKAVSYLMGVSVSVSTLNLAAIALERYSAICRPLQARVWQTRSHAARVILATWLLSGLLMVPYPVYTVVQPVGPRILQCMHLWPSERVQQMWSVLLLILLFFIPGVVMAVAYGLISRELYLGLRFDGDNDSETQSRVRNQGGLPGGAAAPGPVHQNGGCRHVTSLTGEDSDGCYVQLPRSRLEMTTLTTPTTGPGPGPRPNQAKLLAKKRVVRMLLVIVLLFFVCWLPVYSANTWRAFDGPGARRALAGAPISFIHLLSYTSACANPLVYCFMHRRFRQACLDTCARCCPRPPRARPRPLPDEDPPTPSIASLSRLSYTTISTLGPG
- assay comment: CCK receptor binding, mouse brain membranes (125I-CCK-8 sulfate)
- recorded conditions: mouse brain membranes; read-out: Brain IC50
Here pIC50 is given on a logarithmic scale as minus log10 of the concentration in mol/L.

Examples with answers:
>>> value_reported("O=C1NN(C(=O)Nc2cc(C(F)(F)F)ccc2Cl)[C@H](c2ccccc2)[C@H]1c1ccccc1 (relative stereo)")
6.00
>>> value_reported("O=C1NN(C(=O)Nc2cccc(OCc3ccccc3)c2)[C@H](c2ccccc2)[C@H]1c1ccccc1 (relative stereo)")
6.59
>>> value_reported("O=C1NN(C(=O)Cc2ccc(Cl)c(Cl)c2)[C@@H](c2ccccc2)[C@@H]1c1ccccc1 (relative stereo)")
5.74
>>> value_reported("C[C@H](NC(=O)N1NC(=O)C(c2ccccc2)C1c1ccccc1)c1ccccc1 (some centres unmarked)")
5.89

Request: # get_value(readout='pIC50', item= O=C1NN(C(=O)Nc2ccc(Br)cc2)C(c2ccccc2)C1c1cccc([N+](=O)[O-])c1 (centres unmarked) )
Result: 7.00

###

# inhibition at 10 µM values compiled below
- target or test system: peripheral type CCK receptors in rat pancreas (Rattus norvegicus, UniProt P30551)
- Construct: Pancreas was obtained from male Sprague-Dawley rats; from tissue; host or cells: pancreas membranes of male Sprague-Dawley rats
- Sequence (P30551 1-444): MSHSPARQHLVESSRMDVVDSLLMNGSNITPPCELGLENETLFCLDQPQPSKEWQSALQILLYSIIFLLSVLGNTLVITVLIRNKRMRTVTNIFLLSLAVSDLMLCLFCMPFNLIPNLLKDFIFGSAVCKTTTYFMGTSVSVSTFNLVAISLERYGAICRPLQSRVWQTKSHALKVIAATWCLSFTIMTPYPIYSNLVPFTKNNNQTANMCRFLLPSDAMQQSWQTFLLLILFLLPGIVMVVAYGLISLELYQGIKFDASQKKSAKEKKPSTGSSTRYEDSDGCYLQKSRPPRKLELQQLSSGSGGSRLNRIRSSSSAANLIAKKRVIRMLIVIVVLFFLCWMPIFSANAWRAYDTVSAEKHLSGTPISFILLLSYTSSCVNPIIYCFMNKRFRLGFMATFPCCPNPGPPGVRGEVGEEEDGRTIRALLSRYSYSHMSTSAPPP
- assay comment: Binding to peripheral type CCK receptors in rat pancreas (3H-L-364,718)
- recorded conditions: at 10 μM; read-out: Pancreas Percent Inhibition
Lab book: enter the figure in %, no units written.

>>> value_reported("O=C1NN(C(=O)Sc2ccc(Br)cc2)[C@@H](c2ccccc2)[C@@H]1c1ccccc1 (relative stereo)")
59
>>> value_reported("O=C(O)COC1=NN(C(=O)Nc2ccc(Br)cc2)[C@@H](c2ccccc2)[C@@H]1c1ccccc1 (relative stereo)")
64
>>> value_reported("O=C1NN(C(=O)Nc2cc(Cl)cc(Cl)c2)[C@H](c2ccccc2)[C@H]1c1ccccc1 (relative stereo)")
75
>>> value_reported("CC(C)C1C(c2ccccc2)C(=O)NN1C(=O)Nc1ccc(Br)cc1 (stereo not shown)")
20
>>> value_reported("O=C1NN(c2nc3ccccc3s2)[C@@H](c2ccccc2)[C@@H]1c1ccccc1 (relative stereo)")
26

Request: # get_value(readout='inhibition at 10 µM', item= O=C1NN(C(=O)Nc2cccc(OCc3ccccc3)c2)[C@H](c2ccccc2)[C@H]1c1ccccc1 (relative stereo) )
Result: 67

Request: Same for CC(C)Oc1cccc(NC(=O)N2NC(=O)[C@H](c3ccccc3)[C@H]2c2ccccc2)c1 (relative stereo)
Result: 24

Request: Same for O=C1NN(C(=O)Oc2ccc([N+](=O)[O-])cc2)[C@@H](c2ccccc2)[C@@H]1c1ccccc1 (relative stereo)
Result: 9

Request: Same for O=C1NN(C(=S)Nc2c(F)c(F)c(F)c(F)c2F)[C@H](c2ccccc2)[C@H]1c1ccccc1 (relative stereo)
Result: 37

Request: Same for Cc1cccc(NC(=O)N2NC(=O)[C@H](c3ccccc3)[C@H]2c2ccccc2)c1 (relative stereo)
Result: 21

Value source: patent US5399565A
